All values here come from a protein production outcome set (Wang et al. 2014).

# Run description: label from the status in PepcDB records
Recorded endpoint: protein production

1) MLAEAGTGTGVAAAASHDAPPKAVPRQLPAPPRITAFLSAFATPPPHCLRLNKSLNGLHNPVTLHVVCQYMLLRSVHGGRERYLNAHVSQGSWPVLVLNADFRPLSYYPLSLWSWQDAIKAVFLDRVNIVAHYDQAVRSPTLEMQLPSVVSLKSFVKPTTHPAFTRFNVFLRDRFACQYCGSPEDLTFDHIIPRSKGGQTTWENVVAACSPCNLRKGNLTPAQAKMFPRQSAFAPTVHQLHRNGRMFPPNYLHDSWLDYLYWDTELDP
failed
2) MHVVQGAKTMWNKIQVVSHGRGGLRSQCCETTMIGHPTPTPAQDSETQPSPQEHIPEKKPLPKEIGGRDGPEPTRYGDWEKNGRCIDFLEHHHHHH
failed
